system: PfHDP1 homeodomain (GST-tagged); experiment: gcPBM binding intensity (ln(normalized median fluorescence intensity)); higher = stronger DNA binding
The full ranking holds about 25,000 sequences; the median of “ln(normalized median fluorescence intensity)” is about 6.7, and the highest 2% start at about 10. The list comes from a sample in which the highest values are over-represented; it also holds close analogues and randomly drawn sequences.
The sequences listed here are annotated with their gcPBM binding intensity (ln).

ATTTTACATATTTGCACACATATATTTAAATACATA [CACACA_site4627]; 10.8
AAAAAAATCTCCAGTGTGCACAATCACATAATATAT [GTGCAC_site9833]; 10.8

[in] // lookup gcPBM binding intensity (ln) | system=PfHDP1 homeodomain (GST-tagged) | key= AATATATTTGTGTATGTGCGCAGTGTGTAATTTATT [GTGCAC_site9765]
[out] 7.92

[in] // lookup gcPBM binding intensity (ln) | system=PfHDP1 homeodomain (GST-tagged) | key= ATGCATCATTTATTTGCACACCTATTATATACTTTT [CACACA_site2097]
[out] 10.1

[in] // lookup gcPBM binding intensity (ln) | system=PfHDP1 homeodomain (GST-tagged) | key= AAAAAATAATAAATCACACATATTATATATATATAT [CACACA_site5838]
[out] 8.94

###

system: PfHDP1 homeodomain (GST-tagged); test: gcPBM binding intensity (ln(normalized median fluorescence intensity)); higher = stronger DNA binding
In all, about 25,000 sequences were measured (“ln(normalized median fluorescence intensity)”: median about 6.7, highest 2% from about 10 on). The full list was thinned out, with the highest values kept by preference.
Label 0 (no) if gcPBM binding intensity (ln) falls below 7; label 1 (yes) in every other case.

ATATAATATATGTATACACACATATTATATAATATT [CACACA_site3699]; 0 (no)
TATTATAATTTTATATGTACACATATATAAATATAT [XGTACX_site4054]; 0 (no)
GTACATAATTATTATGCACACATATTTTTATGTATT [CACACA_site8132]; 1 (yes)
ATAATATATTTTTGAACACACAATATAGATTTATAT [CACACA_site7857]; 0 (no)
TCTAATTATCACATTGCACACACATTTCCTTTTACA [CACACA_site9140]; 1 (yes)
TAATTTTTCCTTTTTGCACACATTAACGTCGACGAA [CACACA_site4025]; 1 (yes)
ACATAATTATTATGCACACATATTTTTATGTATTTA [CACACA_site698]; 1 (yes)
CACAAAATAAATTAAACACACAACATCATATATGTA [CACACA_site846]; 0 (no)
AAAATTAACCGTAACACACACACATATAAATATGTA [CACACA_site7791]; 0 (no)
TTATATTTTACAAATGCACACATAATTTTTTTTTTT [CACACA_site8890]; 1 (yes)

[in] Is the recorded value of gcPBM binding intensity (ln) equal to or greater than 7 for this sequence? AAAGTAGGCTTATATGCACACTTTGAAATATTATAA [CACACA_site5117]
[out] 1 (yes)

###

tested on: PfHDP1 homeodomain (GST-tagged); assay: gcPBM binding intensity (ln(normalized median fluorescence intensity)); higher = stronger DNA binding
Whole data set: some 25,000 sequences, median “ln(normalized median fluorescence intensity)” near 6.7, cut for the highest 2% near 10. The list comes from a sample in which the highest values are over-represented; it also holds close analogues and randomly drawn sequences.
The sequences listed here are annotated with their gcPBM binding intensity (ln).
Kindly provide the number alone.

TTCATATTATAGTGCACACAAAAATATATATATGGT [CACACA_site2855]; 10.4
TATATTCATAATATTACACACGTTCATTTATTTTAA [CACACA_site2031]; 6.67
TTTATTATATGCACACGTACATATAATATATATATA [XGTACX_site4108]; 10.8
AATAATACACAATTTTGTACGTATTTAAAATATATT [XGTACX_site45]; 6.74
AATTCTTTATTATATGCACACGTACATATAATATAT [CACACA_site8621]; 9.66
AAAATTAAACTCACACCACACACAAAAAAAAAAAAA [CACACA_site8131]; 6.32
AACTCATAGGAGTGTGCACACAAAAAATTAAAAAAA [CACACA_site8996]; 11
AATAATGAAGCTTATGCACACGTTCATTATTTATAT [CACACA_site5736]; 10.6

Turning to the following sequence.
[in] Entry under review: CTCATAGTTGGGTGCACACAAAAAATTAAAAAAATA [CACACA_site3032] . Reported gcPBM binding intensity (ln)?
[out] 10.3

Ref: the supplement of paper PMC11417369
